# experimental.target: DSTYK (human)
# assay.protocol: radiometric filter-binding kinase assay, Kinase HotSpot
# run.conditions: compound 0.5 µM; ATP 10 µM
observed.property: residual activity (%)

1. Cn1cc(/C=C2\C(=O)Nc3ccc(S(N)(=O)=O)cc32)c2ccccc21	92.5
2. c1ccc(-c2cnc(Nc3ccc(OCCN4CCCC4)cc3)s2)cc1	90.8
3. O=S(=O)(NCCNC/C=C/c1ccc(Br)cc1)c1cccc2cnccc12	91.6
4. FC(F)(F)c1ccc(/C=C/c2nc(COc3ccc(CCCCn4ccnn4)cc3)co2)cc1	88.8

###

# experimental.target: NUAK1 (human) (UniProt O60285)
# Sequence (O60285 whole entry, looked up): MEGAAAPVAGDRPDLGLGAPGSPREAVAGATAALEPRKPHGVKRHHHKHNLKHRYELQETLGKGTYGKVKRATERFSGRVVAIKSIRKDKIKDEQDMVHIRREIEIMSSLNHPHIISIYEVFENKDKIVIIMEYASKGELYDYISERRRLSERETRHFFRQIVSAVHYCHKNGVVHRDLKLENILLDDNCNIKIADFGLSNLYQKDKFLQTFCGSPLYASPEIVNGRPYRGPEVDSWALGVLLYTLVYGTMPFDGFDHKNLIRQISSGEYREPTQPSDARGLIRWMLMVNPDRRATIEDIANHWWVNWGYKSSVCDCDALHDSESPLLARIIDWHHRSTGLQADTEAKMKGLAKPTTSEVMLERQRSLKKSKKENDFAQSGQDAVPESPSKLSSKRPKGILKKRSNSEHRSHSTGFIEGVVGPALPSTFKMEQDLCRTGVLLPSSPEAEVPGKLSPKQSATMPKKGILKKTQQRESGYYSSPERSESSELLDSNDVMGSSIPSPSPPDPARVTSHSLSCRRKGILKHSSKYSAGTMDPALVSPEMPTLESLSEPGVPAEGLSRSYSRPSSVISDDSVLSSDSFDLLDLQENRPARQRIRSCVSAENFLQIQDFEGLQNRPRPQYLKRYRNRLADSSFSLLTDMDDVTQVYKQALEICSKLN
# assay.protocol: radiometric filter-binding kinase assay, Kinase HotSpot
# run.conditions: compound 0.5 µM; ATP 10 µM
Listing of entries alongside the reported residual activity.
observed.property: residual activity (%)

1) N#CCCc1ccc2c(c1)-c1[nH]c3ccc([N+](=O)[O-])cc3c1CC(=O)N2	14.1
2) CCOc1cc2ncnc(Nc3cccc(Br)c3)c2cc1OCC	94
3) O=c1[nH]c2ccccc2n1C1CCN(Cc2ccc(-c3nc4cc5[nH]cnc5cc4nc3-c3ccccc3)cc2)CC1	103
